Listing: pEC50 of selected compounds
Target: hNurr1_RXRαFL (NURR1/RXRα heterodimer) (Homo sapiens, UniProt P19793+P43354)
Sequence (P19793 whole entry, the tested form may be a part): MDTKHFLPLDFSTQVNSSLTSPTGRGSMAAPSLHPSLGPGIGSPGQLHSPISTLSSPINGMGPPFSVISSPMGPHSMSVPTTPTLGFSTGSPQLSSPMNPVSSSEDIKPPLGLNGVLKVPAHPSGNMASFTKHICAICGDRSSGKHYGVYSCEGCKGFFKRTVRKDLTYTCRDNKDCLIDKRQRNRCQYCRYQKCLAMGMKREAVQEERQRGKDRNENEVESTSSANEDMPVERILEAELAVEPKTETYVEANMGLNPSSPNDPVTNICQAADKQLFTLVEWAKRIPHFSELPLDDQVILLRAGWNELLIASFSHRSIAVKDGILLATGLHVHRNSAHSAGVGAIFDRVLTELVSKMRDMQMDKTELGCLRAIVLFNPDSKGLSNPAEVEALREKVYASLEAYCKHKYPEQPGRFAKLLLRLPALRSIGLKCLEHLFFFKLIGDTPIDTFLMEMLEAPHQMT
Sequence (P43354 328-598): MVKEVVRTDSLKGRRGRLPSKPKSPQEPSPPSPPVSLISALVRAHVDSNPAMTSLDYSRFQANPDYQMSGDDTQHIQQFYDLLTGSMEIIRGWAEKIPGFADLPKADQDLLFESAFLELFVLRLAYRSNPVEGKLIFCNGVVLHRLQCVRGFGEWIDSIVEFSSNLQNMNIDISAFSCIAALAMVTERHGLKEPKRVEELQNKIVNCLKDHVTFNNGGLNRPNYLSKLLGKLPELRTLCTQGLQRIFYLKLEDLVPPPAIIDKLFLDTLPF
Experiment: Transactivation assay in Cos-7 cells, NURR-1-Gal4 / RXRα, luciferase reporter
Details: Cos-7 cells, overnight incubation
Note on pEC50: it is the negative log10 of concentration, concentration in mol/L.

The cases that follow already have their pEC50 on record.
Cc1c(Cc2nc(C(=O)O)cs2)n(S(=O)(=O)c2cccc(C(C)(C)C)c2)c2ccc(C(F)(F)F)cc12 | 6.31
CC(C)(C)c1cccc(S(=O)(=O)n2c(C(C)(O)c3ccc(C(=O)O)s3)cc3cc(C(F)(F)F)ccc32)c1 (stereo not shown) | 6.68
COc1ccc(S(=O)(=O)n2c(Cc3ccc(C(=O)O)cc3)cc3cc(C(F)(F)F)ccc32)cc1 | 6.46
COC(=O)c1ccc(Cc2cc3cc(Cl)ccc3n2S(=O)(=O)c2ccc3c(c2)C(C)(C)CO3)cc1 | 7.26
CN1CCOc2ccc(S(=O)(=O)n3c(Cc4ccc(F)c(C(=O)O)c4)cc4cc(C(F)(F)F)ccc43)cc21 | 7.72
CN1CCOc2ccc(S(=O)(=O)n3c(Cc4ccc(C(=O)O)cc4)cc4cc(C(F)(F)F)ccc43)cc21 | 7.01
CC(C)(C)c1cccc(S(=O)(=O)n2c(Cc3ccc(-c4noc(=O)[nH]4)cc3)cc3cc(C(F)(F)F)ccc32)c1 | 6.44
CCCCCc1ccc(S(=O)(=O)n2c(Cc3ccc(C(=O)O)cc3)cc3cc(C(F)(F)F)ccc32)cc1 | 6.43
CC(C)(C)c1cccc(S(=O)(=O)n2c(C(F)c3ccc(C(=O)O)cc3)cc3cc(C(F)(F)F)ccc32)c1 (stereo not shown) | 6.83

**Query** Give the reported pEC50 for Cc1cccc(S(=O)(=O)n2c(Cc3ccc(C(=O)O)cc3)cc3cc(Cl)ccc32)c1 (system: hNurr1_RXRαFL (NURR1/RXRα heterodimer) (Homo sapiens, UniProt P19793+P43354)).
**Result** 6.34

---

Target: hNurr1_RXRαFL (NURR1/RXRα heterodimer) (Homo sapiens, UniProt P19793+P43354)
Test: Transactivation assay in Cos-7 cells, NURR-1-Gal4 / RXRα, luciferase reporter
Details: Cos-7 cells, overnight incubation
MEASURE: EC50 (nM)
Respond numerically; units are nM and should not be typed.

The cases that follow already have their EC50 on record.
CC(C)(C)c1cccc(S(=O)(=O)n2c(Cc3ccc(C(=O)O)c(F)c3)cc3cc(C(F)(F)F)ccc32)c1 [Example 10] | 406
CCCCCc1ccc(S(=O)(=O)n2c(Cc3ccc(C(=O)O)cc3)cc3cc(Cl)ccc32)cc1 [Example 170] | 1740
COc1cccc(S(=O)(=O)n2c(Cc3ccc(C(=O)O)cc3)cc3cc(C(F)(F)F)ccc32)c1 [Example 13] | 207

Here's the next entry for you.
**Query** Which EC50 reading was recorded for the molecule O=C(O)c1ccc(Cc2cc3cc(Cl)ccc3n2S(=O)(=O)c2ccc3c(c2)OCCCO3)cc1 [Example 178] ?
**Result** 1030

Data credit: patent US20120232070A1
